Here, each record is paired with measured IC50 data.
Target: S. gregaria-Na^+/K^+-ATPase (Schistocerca gregaria)
Sequence (A0A8E5JSN5 1-1039): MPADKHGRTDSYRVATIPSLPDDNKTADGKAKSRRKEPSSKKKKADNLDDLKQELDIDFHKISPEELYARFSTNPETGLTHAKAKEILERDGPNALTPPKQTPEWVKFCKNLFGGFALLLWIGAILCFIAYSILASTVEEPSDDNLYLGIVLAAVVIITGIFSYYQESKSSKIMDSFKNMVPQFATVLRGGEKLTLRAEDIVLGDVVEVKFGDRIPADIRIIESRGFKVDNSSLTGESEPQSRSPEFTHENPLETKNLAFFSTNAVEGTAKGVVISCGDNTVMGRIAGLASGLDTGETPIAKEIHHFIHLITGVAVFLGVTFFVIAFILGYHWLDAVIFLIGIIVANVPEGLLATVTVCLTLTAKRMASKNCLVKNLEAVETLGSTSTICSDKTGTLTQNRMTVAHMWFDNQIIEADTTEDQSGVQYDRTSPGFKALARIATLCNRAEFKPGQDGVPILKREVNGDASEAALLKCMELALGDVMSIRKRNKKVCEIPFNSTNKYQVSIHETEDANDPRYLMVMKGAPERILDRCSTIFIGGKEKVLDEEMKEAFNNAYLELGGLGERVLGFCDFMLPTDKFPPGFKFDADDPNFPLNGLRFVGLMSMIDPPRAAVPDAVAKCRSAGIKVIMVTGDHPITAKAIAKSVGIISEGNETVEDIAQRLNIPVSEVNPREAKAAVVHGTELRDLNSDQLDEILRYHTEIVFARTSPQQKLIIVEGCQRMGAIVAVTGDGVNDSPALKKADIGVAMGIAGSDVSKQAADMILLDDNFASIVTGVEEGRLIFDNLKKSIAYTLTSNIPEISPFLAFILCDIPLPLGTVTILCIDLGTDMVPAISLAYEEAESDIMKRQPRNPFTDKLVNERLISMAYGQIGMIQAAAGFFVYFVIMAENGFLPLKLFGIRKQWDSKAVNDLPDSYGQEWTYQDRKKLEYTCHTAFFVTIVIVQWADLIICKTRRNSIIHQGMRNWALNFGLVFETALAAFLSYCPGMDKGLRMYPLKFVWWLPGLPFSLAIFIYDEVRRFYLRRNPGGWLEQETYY
Type: biochemical
Conditions: Na+/K+-ATPase extracted from locust recta; read-out: IC50 S. gregaria- Na^+/K^+-ATPase

{"MOLECULE": "CC(=O)O[C@H]1C[C@H](O[C@H]2[C@@H](O)C[C@H](O[C@H]3[C@@H](O)C[C@H](O[C@H]4CC[C@@]5(C)[C@H](CC[C@@H]6[C@@H]5C[C@@H](O)[C@]5(C)[C@@H](C7=CC(=O)OC7)CC[C@]65O)C4)O[C@@H]3C)O[C@@H]2C)O[C@H](C)[C@H]1O[C@@H]1O[C@H](CO)[C@@H](O)[C@H](O)[C@H]1O [lanatoside C, reference compound]", "IC50 [µM]": 12.4}
{"MOLECULE": "CO[C@H]1C[C@H](O[C@H]2CC[C@]3(C=O)[C@H]4CC[C@]5(C)[C@@H](C6=CC(=O)OC6)CC[C@]5(O)[C@@H]4CC[C@]3(O)C2)O[C@H](C)[C@H]1O [cymarin]", "IC50 [µM]": 0.334}
{"MOLECULE": "CC12CC(O)C3C(CCC4(O)CC(O)CC(O)C34CO)C1(O)CCC2C1=CC(=O)OC1 (stereo not shown) [ouabagenin]", "IC50 [µM]": 20.4}
{"MOLECULE": "C[C@]12CC[C@H](O)C[C@H]1CC[C@@H]1[C@@H]2CC[C@]2(C)[C@@H](C3=CC(=O)OC3)[C@@H](O)C[C@]12O [gitoxigenin]", "IC50 [µM]": 37.8}
